- assay target: PABP1 (WT) (human, UniProt P11940 1-636)
- Sequence (P11940 whole entry): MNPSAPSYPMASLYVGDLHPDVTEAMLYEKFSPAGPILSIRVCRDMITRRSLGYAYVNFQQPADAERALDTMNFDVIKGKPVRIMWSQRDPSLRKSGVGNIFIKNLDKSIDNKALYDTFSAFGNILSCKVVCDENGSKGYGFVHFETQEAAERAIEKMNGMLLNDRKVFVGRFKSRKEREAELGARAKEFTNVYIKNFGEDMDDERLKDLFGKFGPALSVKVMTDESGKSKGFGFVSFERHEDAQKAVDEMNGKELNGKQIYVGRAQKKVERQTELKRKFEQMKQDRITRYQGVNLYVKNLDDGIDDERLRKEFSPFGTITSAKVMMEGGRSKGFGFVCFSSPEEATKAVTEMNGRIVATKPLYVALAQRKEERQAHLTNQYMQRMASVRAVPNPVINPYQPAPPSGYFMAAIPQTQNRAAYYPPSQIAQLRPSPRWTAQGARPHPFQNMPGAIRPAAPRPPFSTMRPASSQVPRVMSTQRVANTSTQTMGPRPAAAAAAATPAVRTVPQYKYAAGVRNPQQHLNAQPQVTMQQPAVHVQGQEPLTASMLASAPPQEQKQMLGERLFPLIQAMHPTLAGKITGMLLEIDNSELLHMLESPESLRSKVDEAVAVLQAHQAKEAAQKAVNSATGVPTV
- experiment description: fluorescence anisotropy
measure name: pKd
FYI, pKd means -log10 of a concentration in mol per litre.

Which pKd reading was recorded for the binder AAAAAAAAAAAAAAAAAU (ssRNA) [Poly (A)18] ?
8.70
